Molecular target: UniProt:P35372
Sequence (P35372 whole entry): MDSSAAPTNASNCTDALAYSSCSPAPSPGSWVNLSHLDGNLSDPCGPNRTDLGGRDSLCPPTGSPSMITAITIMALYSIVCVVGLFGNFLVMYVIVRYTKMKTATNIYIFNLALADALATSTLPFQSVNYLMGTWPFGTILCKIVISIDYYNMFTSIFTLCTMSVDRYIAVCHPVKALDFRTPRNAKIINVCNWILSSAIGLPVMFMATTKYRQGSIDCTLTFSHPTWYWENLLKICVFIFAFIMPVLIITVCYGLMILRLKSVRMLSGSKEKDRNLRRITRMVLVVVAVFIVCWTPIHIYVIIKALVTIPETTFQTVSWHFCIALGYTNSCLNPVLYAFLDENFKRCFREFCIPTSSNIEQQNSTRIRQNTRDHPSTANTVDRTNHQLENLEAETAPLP
Experiment: Ratio of potencies against Mu receptor to that of kappa receptor of monkey
Settings: Cercopithecidae; target entry is the homologue from another species

- Record smiles: "CCCCCCCN1CC[C@]2(C)c3cc(O)ccc3CC1[C@@H]2C"
  Ratio: 1.2
- Record smiles: "CCCCN1CC[C@]2(C)c3cc(O)ccc3CC1[C@@H]2C"
  Ratio: 1.4
- Record smiles: "C[C@@H]1C2Cc3ccc(O)cc3[C@]1(C)CCN2C"
  Ratio: 2.7
- Record smiles: "CCCN1CC[C@]2(C)c3cc(O)ccc3CC1[C@@H]2C"
  Ratio: 1.3
- Record smiles: "CCCCCCCCCCN1CC[C@]2(C)c3cc(O)ccc3CC1[C@H]2C"
  Ratio: 3
- Record smiles: "CCCCCCCCCCN1CC[C@]2(C)c3cc(O)ccc3CC1[C@@H]2C"
  Ratio: 2.3
- Record smiles: "CCCCCCCCN1CC[C@]2(C)c3cc(O)ccc3CC1[C@H]2C"
  Ratio: 14.2
- Record smiles: "CCCCCCCCCN1CC[C@]2(C)c3cc(O)ccc3CC1[C@H]2C"
  Ratio: 18
- Record smiles: "CCCCN1CC[C@@]2(C)c3cc(O)ccc3CC1[C@H]2C"
  Ratio: 0.6
- Record smiles: "CCCCCCCCCN1CC[C@]2(C)c3cc(O)ccc3CC1[C@@H]2C"
  Ratio: 3.9

----------
System: Cercopithecidae
Experiment: Ratio of potencies against Mu receptor of monkey to that of rat

- Record smiles: "CCCCCCCN1CC[C@]2(C)c3cc(O)ccc3CC1[C@@H]2C"
  System tested: "Cercopithecidae"
  Ratio: 3.1
- Record smiles: "C[C@H]1C2Cc3ccc(O)cc3[C@@]1(C)CCN2C"
  System tested: "Cercopithecidae"
  Ratio: 0.4
- Record smiles: "CCCCCCCCCN1CC[C@]2(C)c3cc(O)ccc3CC1[C@H]2C"
  System tested: "Cercopithecidae"
  Ratio: 0.1
- Record smiles: "CCCN1CC[C@]2(C)c3cc(O)ccc3CC1[C@@H]2C"
  System tested: "Cercopithecidae"
  Ratio: 0.2
- Record smiles: "CCCN1CC[C@@]2(C)c3cc(O)ccc3CC1[C@H]2C"
  System tested: "Cercopithecidae"
  Ratio: 0.2

----------
Species on record: Cavia porcellus
Assay: Ratio of potencies against sigma receptor to that of Mu receptor of rat
Each record is given t if its reported Ratio is strictly below 0.2. Records at or above 0.2 are given f.

- Record smiles: "CCCCN1CC[C@]2(C)c3cc(O)ccc3CC1[C@@H]2C"
  Classification: "f"
- Record smiles: "CCCCCCN1CC[C@@]2(C)c3cc(O)ccc3CC1[C@H]2C"
  Classification: "t"
- Record smiles: "CCCCCCCCCCN1CC[C@]2(C)c3cc(O)ccc3CC1[C@H]2C"
  Classification: "t"
- Record smiles: "CCCCCCCCN1CC[C@]2(C)c3cc(O)ccc3CC1[C@@H]2C"
  Classification: "f"
- Record smiles: "CCCCCCCCN1CC[C@]2(C)c3cc(O)ccc3CC1[C@H]2C"
  Classification: "t"
- Record smiles: "CCCCCCCCCCN1CC[C@]2(C)c3cc(O)ccc3CC1[C@@H]2C"
  Classification: "t"
- Record smiles: "CCCCCCCN1CC[C@]2(C)c3cc(O)ccc3CC1[C@@H]2C"
  Classification: "f"
- Record smiles: "C[C@@H]1C2Cc3ccc(O)cc3[C@]1(C)CCN2C"
  Classification: "f"
- Record smiles: "C[C@H]1C2Cc3ccc(O)cc3[C@@]1(C)CCN2C"
  Classification: "f"

----------
Biological target: Mu-type opioid receptor (Rattus norvegicus, UniProt P33535)
Sequence (P33535 whole entry): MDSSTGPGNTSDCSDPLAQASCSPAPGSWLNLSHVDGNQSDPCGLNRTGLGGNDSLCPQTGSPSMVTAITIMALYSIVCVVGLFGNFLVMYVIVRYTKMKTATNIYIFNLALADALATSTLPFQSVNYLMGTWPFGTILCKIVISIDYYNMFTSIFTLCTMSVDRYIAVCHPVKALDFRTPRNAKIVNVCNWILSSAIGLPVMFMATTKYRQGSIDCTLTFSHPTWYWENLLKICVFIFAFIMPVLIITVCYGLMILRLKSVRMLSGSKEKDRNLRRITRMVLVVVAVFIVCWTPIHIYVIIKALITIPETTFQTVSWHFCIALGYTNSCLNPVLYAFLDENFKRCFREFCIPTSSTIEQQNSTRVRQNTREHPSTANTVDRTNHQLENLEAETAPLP

- Record smiles: "CCCCCN1CC[C@]2(C)c3cc(O)ccc3CC1[C@@H]2C"
  Ki [nM]: 16
- Record smiles: "CCCCN1CC[C@]2(C)c3cc(O)ccc3CC1[C@@H]2C"
  Ki [nM]: 13
- Record smiles: "CCN1CC[C@@]2(C)c3cc(O)ccc3CC1[C@H]2C"
  Ki [nM]: 10000
